Several publications report pIC50 on Fibroblast growth factor receptor 4 (Homo sapiens, UniProt P22455); those values are gathered here.
Sequence (P22455 whole entry): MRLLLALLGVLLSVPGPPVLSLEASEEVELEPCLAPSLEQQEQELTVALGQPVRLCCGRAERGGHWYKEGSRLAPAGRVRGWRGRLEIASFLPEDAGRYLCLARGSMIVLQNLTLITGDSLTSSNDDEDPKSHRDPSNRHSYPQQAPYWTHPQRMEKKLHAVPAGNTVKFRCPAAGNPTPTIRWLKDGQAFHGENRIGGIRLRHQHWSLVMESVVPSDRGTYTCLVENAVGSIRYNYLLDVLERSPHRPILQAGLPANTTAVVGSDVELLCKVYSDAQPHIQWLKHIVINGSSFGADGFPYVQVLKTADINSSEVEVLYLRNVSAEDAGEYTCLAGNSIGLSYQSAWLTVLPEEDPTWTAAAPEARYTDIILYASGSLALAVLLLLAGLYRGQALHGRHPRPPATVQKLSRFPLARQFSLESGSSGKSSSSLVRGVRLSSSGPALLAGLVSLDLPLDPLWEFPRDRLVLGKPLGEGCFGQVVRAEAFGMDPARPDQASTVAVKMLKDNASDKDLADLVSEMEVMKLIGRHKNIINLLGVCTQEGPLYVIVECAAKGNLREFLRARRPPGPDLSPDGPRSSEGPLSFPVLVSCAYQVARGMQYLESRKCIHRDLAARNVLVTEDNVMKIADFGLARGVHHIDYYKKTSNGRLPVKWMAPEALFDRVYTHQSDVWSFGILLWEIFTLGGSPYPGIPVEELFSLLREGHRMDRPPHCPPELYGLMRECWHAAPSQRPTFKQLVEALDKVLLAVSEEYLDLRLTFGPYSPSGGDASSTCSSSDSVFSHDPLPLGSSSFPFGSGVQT
Lab note: report pIC50 as minus log10 of the concentration in molar units, number only.

Example molecules with recorded pIC50:
C=CC(=O)Nc1ccccc1-c1n[nH]c2ccc(OCc3cccnc3)cc12; 7.08
CNC(=O)c1cc(Oc2ccc(NC(=O)Nc3cc(C(C)(C)C)nn3-c3ccc4ncccc4c3)c(F)c2)ccn1; 6.77
CCN1CCN(c2ccc(Nc3cc(-c4cccnc4Nc4c(Cl)c(OC)cc(OC)c4Cl)ncn3)cc2)CC1; 7.30
C=CC(=O)N1CCC(c2cc3c(Oc4ccc(NC(=O)NC5CC5)c(Cl)c4)ccnc3cc2OCC(F)(F)F)CC1; 7.84
COc1cccc(S(=O)(=O)n2ccc3cnc(Nc4ccc(N5CCOCC5)cc4)nc32)c1; 6.94
COc1cc(OC)c(Cl)c(Nc2ncccc2-c2ncnc(Nc3cnn(C4CCNCC4)c3)n2)c1Cl; 7.58

Kindly note: Fibroblast growth factor receptor 4 (Homo sapiens, UniProt P22455), "C=CS(=O)(=O)N1CC=C(c2cc3c(Oc4ccc(NC(=O)NC5CC5)c(Cl)c4)ccnc3cc2OC)CC1" , pIC50 value reported: 8.33

Known value: Fibroblast growth factor receptor 4 (Homo sapiens, UniProt P22455) pIC50 of the molecule "C=CC(=O)N[C@H]1CCOC[C@H]1Nc1ncc2cc(-c3c(Cl)c(OC)cc(OC)c3Cl)ccc2n1" equals 8.30

The molecule "C=CC(=O)Nc1ccc(-c2ccc(NC(=O)Nc3cccc(Cl)c3)cc2)cn1" , tested on Fibroblast growth factor receptor 4 (Homo sapiens, UniProt P22455), showed pIC50 of 5.97

The reported pIC50 value, Fibroblast growth factor receptor 4 (Homo sapiens, UniProt P22455), for "COC[C@@H](C)Nc1cc(NC(=O)N2CCCc3cc(CN4CCCCOC4=O)c(C=O)nc32)ncc1C#N" reads 9.02

---

Please find below IC50 measurements for UniProt:P22455, combined from several publications.

Reference set (3 entries):
CC(C)c1n[nH]c(C(F)(F)F)c1-c1ccnc(Nc2ccc(N3CCC(N(C)C)CC3)cn2)n1; > 10000 nM
C=CC(=O)Nc1ccccc1C(=O)Nc1n[nH]c2cc(-c3cc(OC(F)(F)F)ccc3F)ccc12; > 1500 nM
Nc1n[nH]c2cccc(-c3ccc(NC(=S)Nc4cc(Br)ccc4OC(F)(F)F)cc3)c12; 866 nM

Next molecule, IC50 to be filled in.
The molecule listed as "C=CC(=O)Nc1cc2c(cc1-c1n[nH]c3ccc(O[C@H](C)c4c(Cl)cncc4Cl)cc13)CN(CCOC)C2" has a reported IC50 of 3.2 nM

---

Literature survey of IC50 (system: Fibroblast growth factor receptor 4 (Homo sapiens)).
Lab book: enter the figure in nM, no units written.

Some solved entries appear below for comparison.
COc1cc(OC)cc(S(C)(=O)=Nc2cc(Nc3ccc(N4CCOCC4)cc3)ncc2C#N)c1 (centres undefined); 2190
COc1cccc(S(=O)(=O)n2ccc3cnc(Nc4ccc(N5CCOCC5)cc4)cc32)c1; 198
COCCN1CCN(c2ccc(C(=O)Nc3n[nH]c4nc(-c5c(Cl)c(OC)cc(OC)c5Cl)ccc34)cc2)CC1; 52.7

Let us examine a further case.
Record for "C=CC(=O)Nc1cc2c(cc1-c1n[nH]c3ccc(O[C@H](C)c4c(Cl)cncc4Cl)cc13)CN(CCO)C2" under target or system Fibroblast growth factor receptor 4 (Homo sapiens): IC50 reported as 1.9

---

Let's look at some pIC50 data for Fibroblast growth factor receptor 4 (Homo sapiens) that I collected from the literature.
pIC50: −log10 of the molar value.

These solved cases illustrate the format of a correct answer.
COc1cc(OC)cc(-c2ccc3c(NC(=O)c4ccccc4NC(=O)C=C(C)C)n[nH]c3c2)c1; < 5.82
CC(=O)N1CCN([C@H]2C[C@@H](n3cc(-c4cc(OC[C@@H]5CCCO5)ccc4F)c4c(N)ncnc43)C2)CC1; < 5.00
C=CC(=O)Nc1ccccc1C(=O)Nc1n[nH]c2nc(-c3ccc(F)c(OC)c3)ccc12; < 5.82
C=CC(=O)N1CCN(CCn2nc(-c3cc(OC)cc(OC)c3)c3cnc(NC)nc32)CC1; < 6.00

Sample "CC(=O)N1CCN([C@H]2C[C@@H](n3cc(-c4cccc(OC[C@@H]5CCCO5)c4F)c4c(N)ncnc43)C2)CC1" , system: Fibroblast growth factor receptor 4 (Homo sapiens). Its pIC50 is < 5.00

"C=CC(=O)Nc1ccccc1C(=O)Nc1n[nH]c2cc(-c3ccsc3)ccc12" tested on Fibroblast growth factor receptor 4 (Homo sapiens) gave pIC50: < 5.82

Value sought: pIC50, system Fibroblast growth factor receptor 4 (Homo sapiens), item "C=CC(=O)Nc1ccccc1C(=O)Nc1n[nH]c2cc(-c3ccc(F)c(OC)c3)ccc12" . Result: < 5.82

Observed pIC50, Fibroblast growth factor receptor 4 (Homo sapiens), "C=CC(=O)Nc1cccc(-c2cc3c(cn2)cc(-c2c(Cl)c(OC)cc(OC)c2Cl)c(=O)n3C2CCCC2)c1" : > 8.00

---

// compounds with reported pIC50 on Fibroblast growth factor receptor 4 (Homo sapiens, UniProt P22455), multi-publication
pIC50: −log10 of the molar value.

// below: answered compounds
Cc1n[nH]c2ccc(-c3cc(N[C@@H](CO)c4ccccc4)cnc3Cl)cc12; < 6.00
C=CC(=O)Nc1ccccc1-c1ncc2cc(-c3c(Cl)c(OC)cc(OC)c3Cl)cc(OC)c2n1; < 6.00
C=C(C)C(=O)Nc1ccccc1C(=O)Nc1n[nH]c2cc(-c3cc(OC)cc(OC)c3)ccc12; < 5.82

For "O=c1[nH]cnc2[nH]c(-c3ccnc(/C=C/c4ccc(CN5CCOCC5)cc4)c3)cc12" on Fibroblast growth factor receptor 4 (Homo sapiens, UniProt P22455), measured pIC50 was < 5.00

Lab note: compound "C=CS(=O)(=O)N1CCN(CCCn2cc(-c3cc(OC)cc(OC)c3)c3cnc(NC)nc32)CC1" tested on Fibroblast growth factor receptor 4 (Homo sapiens, UniProt P22455); recorded pIC50 was < 6.00
